- Measurement conditions: 299.15 K; 101.33 kPa; Liquid; Vibrating tube method
Measure name: mass density (kg/m3)
Only the number, expressed in kg/m3, is required.

Solved entries:
{"columns": ["Structure string", "mass density / kg/m3"],
 "data": [
  ["CCCCn1cc[n+](CCC(C)C)c1.O=S(=O)([N-]S(=O)(=O)C(F)(F)F)C(F)(F)F", 1317.3],
  ["CCCCC[n+]1ccn(CCCC)c1.O=S(=O)([N-]S(=O)(=O)C(F)(F)F)C(F)(F)F", 1316.5],
  ["CCCC[n+]1ccn(C2CCCC2)c1.O=S(=O)([N-]S(=O)(=O)C(F)(F)F)C(F)(F)F", 1373.8]
]}

// moving on: another record for mass density
Quick check: mass density of `CCCCn1cc[n+](C(CC)CC)c1.O=S(=O)([N-]S(=O)(=O)C(F)(F)F)C(F)(F)F` ?
1318.6

###

- Run description: molar heat capacity at constant pressure
- Measurement conditions: 309.15 K; 101.33 kPa; Liquid; DSC
Measure name: molar heat capacity at constant pressure (J/K/mol)
Only the number, expressed in J/K/mol, is required.

Solved entries:
{"columns": ["Structure string", "molar heat capacity at constant pressure, J/K/mol"],
 "data": [
  ["CCCCC[n+]1ccn(CCCC)c1.O=S(=O)([N-]S(=O)(=O)C(F)(F)F)C(F)(F)F", 694.95],
  ["CCCCn1cc[n+](CCC(C)C)c1.O=S(=O)([N-]S(=O)(=O)C(F)(F)F)C(F)(F)F", 693.62]
]}

Quick check: molar heat capacity at constant pressure of `CCCCn1cc[n+](C(CC)CC)c1.O=S(=O)([N-]S(=O)(=O)C(F)(F)F)C(F)(F)F` ?
704.93

Quick one: `CCCC[n+]1ccn(C2CCCC2)c1.O=S(=O)([N-]S(=O)(=O)C(F)(F)F)C(F)(F)F`
659.9

###

- Measurement conditions: 295.15 K; 101.33 kPa; Liquid; Sing-around technique in a fixed-path interferometer
Measure name: speed of sound (m/s)
Only the number, expressed in m/s, is required.

{"columns": ["Structure string", "Measurement"],
 "data": [
  ["CCCCn1cc[n+](CCC(C)C)c1.O=S(=O)([N-]S(=O)(=O)C(F)(F)F)C(F)(F)F", 1224.5],
  ["CCCCn1cc[n+](C(CC)CC)c1.O=S(=O)([N-]S(=O)(=O)C(F)(F)F)C(F)(F)F", 1219.3],
  ["CCCC[n+]1ccn(C2CCCC2)c1.O=S(=O)([N-]S(=O)(=O)C(F)(F)F)C(F)(F)F", 1278.3]
]}

Quick check: speed of sound of `CCCCC[n+]1ccn(CCCC)c1.O=S(=O)([N-]S(=O)(=O)C(F)(F)F)C(F)(F)F` ?
1220.6

###

- Measurement conditions: 289.15 K; 101.33 kPa; Liquid; Vibrating tube method
Measure name: mass density (kg/m3)
Only the number, expressed in kg/m3, is required.

Solved entries:
{"columns": ["Structure string", "mass density (kg/m3)"],
 "data": [
  ["CCCCn1cc[n+](C(CC)CC)c1.O=S(=O)([N-]S(=O)(=O)C(F)(F)F)C(F)(F)F", 1327.6],
  ["CCCCC[n+]1ccn(CCCC)c1.O=S(=O)([N-]S(=O)(=O)C(F)(F)F)C(F)(F)F", 1325.5],
  ["CCCCn1cc[n+](CCC(C)C)c1.O=S(=O)([N-]S(=O)(=O)C(F)(F)F)C(F)(F)F", 1326.3]
]}

Quick check: mass density of `CCCC[n+]1ccn(C2CCCC2)c1.O=S(=O)([N-]S(=O)(=O)C(F)(F)F)C(F)(F)F` ?
1383.1

Just for reference, the NIST ThermoML archive (doi:10.1016/j.fluid.2017.03.021) is where these values come from.
